Test: Kinetic solubility of the compound at pH 7 by HPLC analysis
Assay type: physicochemical
Settings: buffer, read-out: Kinetic_solubility
REPORTED METRIC: solubility kinetic (µM)
Quick reminder: number only, in µM, skip the unit.

O=S(=O)(Nc1nccs1)c1cc(Cl)c(NCC23CCCN2CCC3)cc1F | 43

Consider the record given below.
The molecule identified as CC1(C)CN2CCC[C@]2(CNc2cc(F)c(S(=O)(=O)Nc3nccs3)cc2Cl)C1 registered its solubility kinetic at 28

====

Test system: Rattus norvegicus
Assay: Intrinsic clearance in rat at 0.05 mg/kg, iv administered in cassette format or 2 mg/kg, iv administered as single dose or 10 mg/kg, po
Format: ADME, organism-based
Conditions: in vivo
// reported CL per item

Solved entries (count: 3):
O=S(=O)(Nc1ncc(F)s1)c1cc(Cl)c(NCC23CCCN2CCC3)cc1F | 230 mL/min/kg
O=S(=O)(Nc1ncns1)c1cc(F)c(NCC23CCCN2CCC3)cc1F | 62 mL/min/kg
O=S(=O)(Nc1nccs1)c1cc(Cl)c(NC[C@]23CCCN2C[C@@H](F)C3)cc1F | 810 mL/min/kg

Consider the record given below.
Consider O=S(=O)(Nc1ncns1)c1cc(Cl)c(NCC23CCCN2CCC3)cc1F . Its measured CL is 660 mL/min/kg

====

Tested on: Rattus norvegicus
Test: Intrinsic clearance in rat at 0.05 mg/kg, iv administered in cassette format or 2 mg/kg, iv administered as single dose or 10 mg/kg, po
Type: ADME, organism-based
Conditions: in vivo
We use 30 L/h/kg as the dividing line for CL: on or above the line is Y, below is N.

Cc1nc(NS(=O)(=O)c2cc(Cl)c(NCC34CCCN3CCC4)cc2F)sc1F | Y
Cc1csc(NS(=O)(=O)c2cc(Cl)c(NCC34CCCN3CCC4)cc2F)n1 | N
Cc1cnc(NS(=O)(=O)c2cc(Cl)c(NCC34CCCN3CCC4)cc2F)s1 | Y
O=S(=O)(Nc1nccs1)c1cc(Cl)c(NCCC23CCCN2CCC3)cc1F | Y

**Query** CL >= 30 L/h/kg for O=S(=O)(Nc1ccncn1)c1cc(Cl)c(NCC23CCCN2CCC3)cc1F ?
**Result** N

====

System: Rattus norvegicus
Assay: Intrinsic clearance in rat at 0.05 mg/kg, iv administered in cassette format or 2 mg/kg, iv administered as single dose or 10 mg/kg, po
Type: ADME, organism-based
Conditions: in vivo
Rule: CL below 600 mL/min/kg gives y, anything at or above gives n.

Sample answers from the record:
CC1(C)CN2CCC[C@@]2(CNc2cc(F)c(S(=O)(=O)Nc3nccs3)cc2Cl)C1 | n
O=S(=O)(Nc1ncc(Cl)s1)c1cc(Cl)c(NCC23CCCN2CCC3)cc1F | n
O=S(=O)(Nc1nccs1)c1cc(Cl)c(NCC23CCCCN2CCCC3)cc1F | n

**Query** Input CC1(C)CN2CCC[C@]2(CNc2cc(F)c(S(=O)(=O)Nc3nccs3)cc2Cl)C1 ; condition: CL strictly below 600 mL/min/kg. Does it hold?
**Result** y

====

Test system: Plasma
Experiment: Plasma concentration in C57BL/6 mouse at 3 to 30 mg/kg, po
Type: ADME, organism-based
Conditions: in vivo
REPORTED METRIC: concentration (nM)
Write it as a number; the unit nM goes unstated.

Input O=S(=O)(Nc1nccs1)c1cc(Cl)c(NCC23CCCN2CCC3)cc1F . Output concentration: 420
